- target of assay: T1, human CD3 (huCD3ed) (human, UniProt P07766 23-126; P04234 22-105)
- T1 construct: Soluble analyte in SPR; The delta chain is inferred from the label 'ed'; also called hCD3ed; hCD3
- T1 sequence (P07766 23-126, chain 1 of 2): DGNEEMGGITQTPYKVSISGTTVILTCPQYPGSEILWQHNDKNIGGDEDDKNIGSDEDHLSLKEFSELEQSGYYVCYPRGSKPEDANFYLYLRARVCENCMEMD
- T1 sequence (P04234 22-105, chain 2 of 2): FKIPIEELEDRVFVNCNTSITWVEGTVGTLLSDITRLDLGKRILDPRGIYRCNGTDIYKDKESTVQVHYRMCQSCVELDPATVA
- experimental details: SPR (ProteOn XPR36), IgG amine-coupled on chip, huCD3ed as analyte, 37 C
kon reference
Note: unit M⁻¹ s⁻¹ is implicit; provide only the numeric part.

• h2B4-VH-yads VL_TK (antibody, V domains shown, Anti-CD3) VH: EVQLVESGGGLVQPGGSLRLSCAASGFTFSDYYMTWVRQAPGKGLEWVAFIRNRARGYTSDYADSVKGRFTISRDNAKNSLYLQMNSLRAEDTAVYYCARDRPSYYVLDYWGQGTTVTVSS VL: DIVMTQSPDSLAVSLGERATINCKSSQSLFNVRSRKNYLAWYQQKPGQPPKLLISWASTRESGVPDRFSGSGSGTDFTLTISSLQAEDVAVYYCKQSYDLFTFGSGTKLEIK = 240000
• h2B4-VH-hnps VL_TK (antibody, V domains shown, Anti-CD3; also called h2B4-hnpsTK) VH: EVQLVESGGGLVQPGGSLRLSCAASGFTFSDYYMTWVRQAPGKGLEWVAFIRNRARGYTSDHNPSVKGRFTISRDNAKNSLYLQMNSLRAEDTAVYYCARDRPSYYVLDYWGQGTTVTVSS VL: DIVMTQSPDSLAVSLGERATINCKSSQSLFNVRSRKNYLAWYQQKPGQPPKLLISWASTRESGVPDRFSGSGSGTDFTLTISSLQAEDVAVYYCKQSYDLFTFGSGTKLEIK = 390000
• h2B4-VH-yaps VL_TK (antibody, V domains shown, Anti-CD3) VH: EVQLVESGGGLVQPGGSLRLSCAASGFTFSDYYMTWVRQAPGKGLEWVAFIRNRARGYTSDYAPSVKGRFTISRDNAKNSLYLQMNSLRAEDTAVYYCARDRPSYYVLDYWGQGTTVTVSS VL: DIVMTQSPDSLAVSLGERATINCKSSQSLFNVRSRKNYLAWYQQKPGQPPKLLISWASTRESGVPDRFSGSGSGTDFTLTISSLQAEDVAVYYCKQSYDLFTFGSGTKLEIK = 250000
• h2B4 (antibody, V domains shown, Anti-CD3; tested as human IgG immobilised on the chip; also called h2B4-1d) VH: EVQLVESGGGLVQPGGSLRLSCAASGFTFSDYYMTWVRQAPGKGLEWVAFIRNRARGYTSDHNASVKGRFTISRDNAKNSLYLQMNSLRAEDTAVYYCARDRPSYYVLDYWGQGTTVTVSS VL: DIVMTQSPDSLAVSLGERATINCTSSQSLFNVRSRKNYLAWYQQKPGQPPKLLISWASTRESGVPDRFSGSGSGTDFTLTISSLQAEDVAVYYCKQSYDLFTFGSGTKLEIK = 437000

response.value for h2B4-VH-yaes VL_TK (antibody, V domains shown, Anti-CD3; also called h2B4-yaesTK) VH: EVQLVESGGGLVQPGGSLRLSCAASGFTFSDYYMTWVRQAPGKGLEWVAFIRNRARGYTSDYAESVKGRFTISRDNAKNSLYLQMNSLRAEDTAVYYCARDRPSYYVLDYWGQGTTVTVSS VL: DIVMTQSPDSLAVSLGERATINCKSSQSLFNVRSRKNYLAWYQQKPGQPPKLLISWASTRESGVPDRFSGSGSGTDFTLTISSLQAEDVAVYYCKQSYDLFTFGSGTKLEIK (field: kon) = 230000

response.value for h2B4-VH-wt VL_TK (antibody, V domains shown, Anti-CD3; also called h2B4-TK) VH: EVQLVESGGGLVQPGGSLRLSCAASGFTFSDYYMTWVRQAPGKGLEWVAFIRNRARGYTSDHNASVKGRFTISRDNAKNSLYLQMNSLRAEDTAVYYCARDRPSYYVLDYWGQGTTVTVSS VL: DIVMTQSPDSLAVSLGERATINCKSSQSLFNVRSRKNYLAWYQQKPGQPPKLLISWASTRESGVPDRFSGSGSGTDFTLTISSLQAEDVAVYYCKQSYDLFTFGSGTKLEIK (field: kon) = 380000
